The reported numbers originate from paper PMC5046737.

- Tested on: EPSPS of the susceptible (S) population (EPSPS1 and EPSPS2)
- Construct: native enzyme in raw leaf extract; both isozymes expressed
- test summary: EPSPS activity in leaf extract, continuous phosphate release (EnzChek)
- Assay type: biochemical, Bidens pilosa
- test context: raw leaf extract, mixed isozymes; 10 min at 360 nm; glyphosate 0-10000 μM; text prints 0.95 μM; read-out: I50
quantity: IC50 (nM)
Numeric answer only, unit nM assumed.

Looking for the measured IC50 of O=C(O)CNCP(=O)(O)O [glyphosate] , can you help?
960
